Target: T1, human Trop-2-hFc (human, UniProt P09758 27-274)
T1 construct: also called huTrop-2; human Trop-2 human Fc fusion protein; not shown: human Fc
T1 sequence: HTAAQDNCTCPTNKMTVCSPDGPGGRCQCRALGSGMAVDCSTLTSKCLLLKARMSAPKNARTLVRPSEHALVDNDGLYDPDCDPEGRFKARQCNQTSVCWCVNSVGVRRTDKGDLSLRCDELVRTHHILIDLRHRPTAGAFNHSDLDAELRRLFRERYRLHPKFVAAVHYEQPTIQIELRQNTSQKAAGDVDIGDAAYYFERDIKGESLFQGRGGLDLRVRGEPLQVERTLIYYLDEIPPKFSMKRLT
Assay: SPR (Biacore T200), human Trop-2-hFc captured by anti-human Fc, Fab as analyte
READOUT LABEL: kon (M⁻¹ s⁻¹)
The reply should be a number in M⁻¹ s⁻¹, with the unit left off.

Some binders with known kon results, for comparison:
binder="h7E6_SVG Fab (Fab, V domains shown, also called DG (h7E6_SVG)) VH: QVQLQESGPGLVKPSETLSLTCTVSGGSISSYGVHWIRQPPGKGLEWIGVIWTSGVTDYNSALMGRVTISVDTSKNQFSLKLSSVTAADTAVYYCARDGDYDRYTMDYWGQGTLVTVSS VL: DIVMTQSPDSLAVSLGERATINCRASKSVSTSGYSYMHWYQQKPGQPPKLLIYLASNLESGVPDRFSGSGSGTDFTLTISSLQAEDVAVYYCQHSRELPYTFGQGTKLEIK" value_measured=97600
binder="h7E6-WT recombinant Fab fragment (Fab, V domains shown, Recombinant Fab) VH: QVQLQESGPGLVKPSETLSLTCTVSGGSISSYGVHWIRQPPGKGLEWIGVIWTGGSTDYNSALMSRVTISVDTSKNQFSLKLSSVTAADTAVYYCARDGDYDRYTMDYWGQGTLVTVSS VL: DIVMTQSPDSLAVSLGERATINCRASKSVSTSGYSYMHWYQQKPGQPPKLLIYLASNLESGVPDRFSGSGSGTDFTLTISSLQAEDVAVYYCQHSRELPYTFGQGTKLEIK" value_measured=139000
binder="h7E6_SVGL recombinant Fab fragment (Fab, V domains shown, Recombinant Fab) VH: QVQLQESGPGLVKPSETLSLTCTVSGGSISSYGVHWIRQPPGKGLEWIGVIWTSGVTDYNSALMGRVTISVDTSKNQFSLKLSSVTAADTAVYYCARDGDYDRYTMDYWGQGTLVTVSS VL: DIVMTQSPDSLAVSLGERATINCRASKSVSTSLYSYMHWYQQKPGQPPKLLIYLASNLESGVPDRFSGSGSGTDFTLTISSLQAEDVAVYYCQHSRELPYTFGQGTKLEIK" value_measured=131000

// moving on: another record for kon
Please look up its kon: h7E6_L recombinant Fab fragment (Fab, V domains shown, Recombinant Fab) VH: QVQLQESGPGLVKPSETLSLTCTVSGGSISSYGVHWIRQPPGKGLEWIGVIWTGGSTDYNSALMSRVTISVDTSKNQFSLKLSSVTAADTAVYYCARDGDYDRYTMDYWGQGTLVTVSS VL: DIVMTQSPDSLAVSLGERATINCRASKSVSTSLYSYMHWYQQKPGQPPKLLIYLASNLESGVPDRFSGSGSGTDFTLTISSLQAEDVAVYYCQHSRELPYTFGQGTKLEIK
130000
